test: NCI Yeast Anticancer Drug Screen. Data for the mlh1 rad18 strain (AID 175); conditions: S. cerevisiae mlh1 rad18 strain growth inhibition; at 50.0 µM; active compounds read high
About 79,000 compounds went through this panel and 15% of them were active in at least one assay; those are over-represented in the sample as a whole.
Tick true (1) if growth inhibition is 80% or greater. Tick false (0) if growth inhibition is less than 80%.

Check this compound for growth inhibition at or above 80%: CC(=O)Nc1nc(CCl)cs1
false (0)

Could you do the same for C/C(=C\c1ccc(Cl)c(Cl)c1)[N+](=O)[O-] , please?
false (0)

Here is the next compound: COc1ccc2[nH]cc(CN(C)C)c2c1
false (0)

What do we get for ClCc1cccc2ccccc12 ?
false (0)

And then CCOC(=O)/C=C1\Nc2ccccc2C(c2ccccc2)=NC1OC(C)=O (stereo not given) , what is it?
false (0)

Then what about the compound C=C[CH2][Sn]([CH2]C=C)([c]1ccccc1)[c]1ccccc1 ?
false (0)

Another: O=C(OCCOc1ccccc1)C(Cl)(Cl)Cl
false (0)

Another: CNC(=O)Oc1ccccc1C(N)=O
false (0)

Also, NCCN1CC2CCC(CC2)C1 please.
false (0)

How about CC1(Cl)CC2C(CC1Sc1nnnn1-c1ccccc1)C2(C)C (stereo not given) ?
false (0)

Now try CC1=CC2CC(C)=C(CC[C@]3(C)CC[C@H]([C@@H](C)C(=O)O)OO3)C(C)(C)C2CC1 (stereo not given in full) .
true (1)

Can you handle CCCC(C)c1ccc(SOO)cc1.[Fe] (stereo not given) next?
false (0)

Cool, now O=C(NCCN1CCOCC1)c1ccc2cc(C(=O)N3CC(CCl)c4ccc([N+](=O)[O-])cc43)[nH]c2c1 (stereo not given)
true (1)

Same for O=[N+]([O-])/C=C/c1c(Cl)cccc1Cl
true (1)

Lookup CC1(C)C2CCC([CH2][Hg][Cl])C1C2 (stereo not given)
true (1)

Try N#CNc1nnnn1-c1ccccc1 (tested in a mixture with another compound) next.
false (0)

Param item: C/C(=N\N1CN(C(C)C(=O)O)P(N(CCO)CCO)N=C1N)c1cccs1 (stereo not given)
false (0)

Then CCOC(=O)C(=O)C1CCNC1=O (stereo not given) ?
false (0)

Further, for CC(=O)OC1=CC2=CC[C@H]3[C@@H]4CCC(=O)[C@@]4(C)CC(=O)[C@]3(S)[C@@]2(C)CC1 ?
false (0)

Next: C[C@]12CC[C@H]3[C@@H](CCC4=CC(=O)CC[C@@H]43)[C@@H]1CC[C@@H]2OC(=O)N(CCCl)N=O
true (1)

And what about the compound CCOC(=O)C1C(=O)CN2CCc3c([nH]c4ccccc34)C12C(=O)OCC (stereo not given) ?
false (0)

What about this compound? CCCOCC(O)C[As](=O)(O)c1cccc(Cl)c1 (stereo not given)
false (0)

Also need Cc1cc(CCN)c(C)c2c1oc1ccccc12 , thanks.
true (1)

Continue with O=[N+]([O-])c1cc(-c2ccccc2)ccc1O
true (1)

Please do the same for CCOC(=O)C1C(=O)C(CN(CCCl)CCCl)C(=O)C(C(=O)OCC)C1c1cc(OC)c(OC)c(OC)c1 (stereo not given) as well.
false (0)

Entry to check: CCN1CC2(CO)CCC(OC)C34C5CC6C(OC)CC(O)(C5C6OC)C(O)(C(OC)C23)C14 (stereo not given)
false (0)

Entry CCOC(=O)NP(=O)(NNc1ccccc1)NNc1ccccc1 please
true (1)

Now try CO[C@@]12[C@@H]3N[C@@H]3CN1C1=C(C(=O)C(N(C)c3ccc(O)cc3)=C(C)C1=O)[C@@H]2COC(N)=O .
true (1)

Next compound: CC(=O)c1cc2c(cc1O)C(C)(C)CCC2(C)C
true (1)

For CC(=O)OC[C@]12C[C@H](OC(=O)CC(C)C)C(C)=C[C@H]1OC1[C@H](O)[C@@H](OC(C)=O)[C@@]2(C)[C@@]12CO2 then?
true (1)

Okay, and CNC(=O)Oc1cccc(N=CN(C)C)c1 ?
false (0)

Field entry: O=[N+]([O-])/C=C/c1cccc(F)c1
true (1)

Same lookup for COC(CN1CCOCCOCCOCC1)CN1CCOCCOCCOCC1 , please.
false (0)

Moving on to CCOC(=O)C1(O)N=C(c2ccccc2)c2ccccc2-n2cccc21 (stereo not given)
false (0)

Can you handle O=C1SCCC1NP(=O)(Oc1ccccc1)Oc1ccccc1 (stereo not given) next?
false (0)

Proceed to COc1ccccc1CC(C)N (stereo not given)
false (0)

Note, next up: C[CH2][Sn]([F])([CH2]C)[CH2]C
true (1)

Then Oc1ccc(Nc2c3ccc(Cl)cc3nc3ccc(-c4ccccc4)cc23)cc1CN(CCCl)CCCl ?
true (1)

Same thing, different compound: CC(C)(C)[Si](C)(C)OC(=O)CCCc1ccc(N(CCCl)CCCl)cc1
false (0)

Try this compound too: CC1(c2ccccc2)CCC(=O)NC1=O (stereo not given)
false (0)

Now give it for O=C1[C@@H]2[C@H](C(=O)N1c1ccccc1)[C@H]1CC[C@H]2N1C(=O)c1ccccc1 too.
false (0)

And for COc1cc([C@@H]2c3cc4c(cc3C[C@H]3COC(=O)[C@@H]32)OCO4)cc(OC)c1OC ?
false (0)

Could you do the same for c1ccc(C(c2ccccc2)c2cccnc2)cc1 , please?
true (1)

Record: O=Cc1cn(CCCCCCCCCCCCn2cc(C=O)c3ccccc32)c2ccccc12
false (0)

Another compound: O=C(Nc1cccc(Cl)c1)OCC(Cl)(Cl)Cl
true (1)
